B1: LINE1-mini (parent)
chain: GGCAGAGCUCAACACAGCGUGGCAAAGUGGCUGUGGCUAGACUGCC

- Variants of: B1
- protocol details: self-cleavage, relative activity (ratio to wild type); higher = more cleavage; in vitro, sequencing; the parent is a self-cleaving ribozyme
Classification field: enter Yes for self-cleavage values not below 0.1, No for values below it.

alteration	label class
U43G C46A	Yes
A6G A24G	Yes
G36C G44C	Yes
A24C G29U	Yes
G7U G40C	Yes
U9C A24G	No
A14U G21A	Yes
A6C A16G	Yes
C18U U38G	No
C3A G21A	Yes
G19U G33U	Yes
C31A G40U	No
G5C A24G	No
C23U G27A	Yes
C15U G21C	Yes
A24G U32C	Yes
G1U G19A	Yes
C3A U38G	Yes
U32C U38C	No
A6C A11C	No
